src = PubChem BioAssay AID2060896

System: 941728-121-R-J1-PDC complex spheroid viability
ASSAY NOTES: Anticancer human tumor 941728-121-R-J1-PDC patient-derived lung adenocarcinoma cell line growth inhibition [RAS]
COND: second compound 1 µM; first compound 0.0316 µM; stronger effect = lower value
Reported viability, T/C by item:
A number alone suffices; assume %.

Solved cases (2 shown):
[
  {
    "MOLECULE": "CC(C)n1nc(-c2ccc3oc(N)nc3c2)c2c(N)ncnc21 + C#Cc1c(F)ccc2cc(O)cc(-c3ncc4c(N5CC6CCC(C5)N6)nc(OCC56CCCN5CC(F)C6)nc4c3F)c12",
    "STUDY SYSTEM": "941728-121-R-J1-PDC complex spheroid viability",
    "viability, T/C, %": 21.1
  },
  {
    "MOLECULE": "C[C@@H](NC(=O)c1ncnc(N)c1Cl)c1ncc(C(=O)Nc2cc(C(F)(F)F)c(Cl)cn2)s1 + C=CC(=O)N1CCN(c2nc(OCC3CCCN3C)nc3c(F)c(-c4nc(N)cc(C)c4C(F)(F)F)c(Cl)cc23)C(C)C1",
    "STUDY SYSTEM": "941728-121-R-J1-PDC complex spheroid viability",
    "viability, T/C, %": 23.4
  }
]

Lab note: next molecule to report on.
Enquiry: Under 941728-121-R-J1-PDC complex spheroid viability: report viability, T/C of O=C(c1ccc(F)c(F)c1Nc1ccc(I)cc1F)N1CC(O)([C@@H]2CCCCN2)C1 + C#Cc1c(F)ccc2cc(O)cc(-c3ncc4c(N5CC6CCC(C5)N6)nc(OCC56CCCN5CC(F)C6)nc4c3F)c12 .
Return: 31.9

* * *

Reported viability, T/C by item:
Test system: 941728-121-R-J1-PDC complex spheroid viability
ASSAY NOTES: Anticancer human tumor 941728-121-R-J1-PDC cell line growth inhibition [RAS];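 note: spheroids exposed to compounds for 7 days before readout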;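 for viability, T/C: 100% = DMSO vehicle control viability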
COND: second compound 1 µM; first compound 1 µM; stronger effect = lower value
A number alone suffices; assume %.

[
  {
    "COMPOUND": "Cc1nc(N2CCC3(CC2)COC(C)C3N)c(CO)nc1Sc1ccnc(N)c1Cl (stereo not given) + C#Cc1c(F)ccc2cc(O)cc(-c3ncc4c(N5CC6CCC(C5)N6)nc(OCC56CCCN5CC(F)C6)nc4c3F)c12",
    "STUDY SYSTEM": "941728-121-R-J1-PDC complex spheroid viability",
    "UNIT LABEL": "%",
    "viability, T/C": 27.9
  },
  {
    "COMPOUND": "Nc1ccn(C2OC(CO)C(O)C2(F)F)c(=O)n1 (stereo not given) + C#Cc1c(F)ccc2cc(O)cc(-c3ncc4c(N5CC6CCC(C5)N6)nc(OCC56CCCN5CC(F)C6)nc4c3F)c12",
    "STUDY SYSTEM": "941728-121-R-J1-PDC complex spheroid viability",
    "UNIT LABEL": "%",
    "viability, T/C": 30.3
  },
  {
    "COMPOUND": "NC1c2ccccc2OC12CCN(c1cnc3c(N4CCCc5ncccc54)n[nH]c3n1)CC2 (stereo not given) + C#Cc1c(F)ccc2cc(O)cc(-c3ncc4c(N5CC6CCC(C5)N6)nc(OCC56CCCN5CC(F)C6)nc4c3F)c12",
    "STUDY SYSTEM": "941728-121-R-J1-PDC complex spheroid viability",
    "UNIT LABEL": "%",
    "viability, T/C": 29.4
  },
  {
    "COMPOUND": "CCC(CC)c1cc(NC2CCC(N)C2)n2nccc2n1 (stereo not given) + C=CC(=O)N1CCN(c2nc(OCC3CCCN3C)nc3c(F)c(-c4nc(N)cc(C)c4C(F)(F)F)c(Cl)cc23)C(C)C1",
    "STUDY SYSTEM": "941728-121-R-J1-PDC complex spheroid viability",
    "UNIT LABEL": "%",
    "viability, T/C": 30.2
  }
]

Lab note: next compound to report on.
Enquiry: Assign viability, T/C to the following record: C=CC(=O)Nc1cc(Nc2nccc(-c3cn(C)c4ccccc34)n2)c(OC)cc1N(C)CCN(C)C + C=CC(=O)N1CCN(c2nc(OCC3CCCN3C)nc3c(F)c(-c4nc(N)cc(C)c4C(F)(F)F)c(Cl)cc23)C(C)C1
Return: 16.2

* * *

Test system: 941728-121-R-J1-PDC complex spheroid viability
ASSAY NOTES: Anticancer human tumor 941728-121-R-J1-PDC cell line growth inhibition [RAS];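 note: spheroids exposed to compounds for 7 days before readout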
COND: curve of first compound; second compound 0.003 µM
pIC50: −log10 of the molar value.
Reported pIC50 by item:

[
  {
    "COMPOUND": "C=CC(=O)Nc1cc(Nc2nccc(-c3cn(C)c4ccccc34)n2)c(OC)cc1N(C)CCN(C)C + CCn1c(-c2cc(N3CCN(C)CC3)cnc2C(C)OC)c2c3cc(ccc31)-c1csc(n1)CC(NC(=O)C1CC1C)C(=O)N1CCCC(N1)C(=O)OCC(C)(C)C2",
    "pIC50": "> 8.50"
  },
  {
    "COMPOUND": "CC(C)n1nc(-c2ccc3oc(N)nc3c2)c2c(N)ncnc21 + CCn1c(-c2cc(N3CCN(C)CC3)cnc2C(C)OC)c2c3cc(ccc31)-c1csc(n1)CC(NC(=O)C1CC1C)C(=O)N1CCCC(N1)C(=O)OCC(C)(C)C2",
    "pIC50": "> 9.50"
  }
]

Lab note: next compound to report on.
Enquiry: Assign pIC50 to the following record: C=CC(=O)N1CCN(c2nc(OCC3CCCN3C)nc3c(F)c(-c4nc(N)cc(C)c4C(F)(F)F)c(Cl)cc23)C(C)C1 (stereo not drawn) + CCn1c(-c2cc(N3CCN(C)CC3)cnc2C(C)OC)c2c3cc(ccc31)-c1csc(n1)CC(NC(=O)C1CC1C)C(=O)N1CCCC(N1)C(=O)OCC(C)(C)C2
Return: > 8.50

* * *

Test system: 941728-121-R-J1-PDC complex spheroid viability
ASSAY NOTES: Anticancer human tumor 941728-121-R-J1-PDC cell line growth inhibition [RAS];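 note: spheroids exposed to compounds for 7 days before readout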;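 for viability, T/C: 100% = DMSO vehicle control viability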
COND: second compound 0.003 µM; first compound 0.000949 µM; stronger effect = lower value
Reported viability, T/C by item:
A number alone suffices; assume %.

[
  {
    "COMPOUND": "CCc1c2c(nc3ccc(O)cc13)-c1cc3c(c(=O)n1C2)COC(=O)[C@]3(O)CC + CCn1c(-c2cccnc2C(C)OC)c2c3cc(ccc31)N1CCOC(CC(NC(=O)C(C(C)C)N(C)C(=O)C3(F)CCN(C(=O)C#CC(C)(C)N(C)C)CC3)C(=O)N3CCCC(N3)C(=O)OCC(C)(C)C2)C1",
    "viability, T/C (%)": 25.2
  }
]

Enquiry: Assign viability, T/C to the following record: CCc1c2c(nc3ccc(O)cc13)-c1cc3c(c(=O)n1C2)COC(=O)[C@]3(O)CC + CCn1c(-c2cc(N3CCN(C)CC3)cnc2C(C)OC)c2c3cc(ccc31)-c1csc(n1)CC(NC(=O)C1CC1C)C(=O)N1CCCC(N1)C(=O)OCC(C)(C)C2
Return: 25.8

Enquiry: Assign viability, T/C to the following record: CC1(C)CCC(Nc2ncc(C(F)(F)F)c(-c3c[nH]c4c(P(C)(C)=O)c(C#N)ccc34)n2)CN1 (centres undefined) + CCn1c(-c2cc(N3CCN(C)CC3)cnc2C(C)OC)c2c3cc(ccc31)-c1csc(n1)CC(NC(=O)C1CC1C)C(=O)N1CCCC(N1)C(=O)OCC(C)(C)C2
Return: 19.8

Enquiry: Assign viability, T/C to the following record: CC1(C)CCC(Nc2ncc(C(F)(F)F)c(-c3c[nH]c4c(P(C)(C)=O)c(C#N)ccc34)n2)CN1 (centres undefined) + CCn1c(-c2cccnc2C(C)OC)c2c3cc(ccc31)N1CCOC(CC(NC(=O)C(C(C)C)N(C)C(=O)C3(F)CCN(C(=O)C#CC(C)(C)N(C)C)CC3)C(=O)N3CCCC(N3)C(=O)OCC(C)(C)C2)C1
Return: 25.2

* * *

Test system: 941728-121-R-J1-PDC complex spheroid viability
ASSAY NOTES: Anticancer human tumor 941728-121-R-J1-PDC cell line growth inhibition [RAS];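 note: spheroids exposed to compounds for 7 days before readout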;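 for viability, T/C: 100% = DMSO vehicle control viability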
COND: second compound 0.0316 µM; first compound 0.1 µM; stronger effect = lower value
PARAMETER: viability, T/C

Enquiry: Assign viability, T/C to the following record: CCN1CCN(Cc2ccc(Nc3ncc(F)c(-c4cc(F)c5nc(C)n(C(C)C)c5c4)n3)nc2)CC1 + C=CC(=O)N1CCN(c2nc(OCC3CCCN3C)nc3c(F)c(-c4nc(N)cc(C)c4C(F)(F)F)c(Cl)cc23)C(C)C1
Return: 13.5%

Enquiry: Assign viability, T/C to the following record: Cc1nc(N2CCC3(CC2)COC(C)C3N)c(CO)nc1Sc1ccnc(N)c1Cl (stereo not given) + C#Cc1c(F)ccc2cc(O)cc(-c3ncc4c(N5CC6CCC(C5)N6)nc(OCC56CCCN5CC(F)C6)nc4c3F)c12
Return: 42.5%

Enquiry: Assign viability, T/C to the following record: O=C(c1ccc(F)c(F)c1Nc1ccc(I)cc1F)N1CC(O)([C@@H]2CCCCN2)C1 + C=CC(=O)N1CCN(c2nc(OCC3CCCN3C)nc3c(F)c(-c4nc(N)cc(C)c4C(F)(F)F)c(Cl)cc23)C(C)C1
Return: 13.9%

Enquiry: Assign viability, T/C to the following record: CCN1CCN(Cc2ccc(Nc3ncc(F)c(-c4cc(F)c5nc(C)n(C(C)C)c5c4)n3)nc2)CC1 + C#Cc1c(F)ccc2cc(O)cc(-c3ncc4c(N5CC6CCC(C5)N6)nc(OCC56CCCN5CC(F)C6)nc4c3F)c12
Return: 49%

Enquiry: Assign viability, T/C to the following record: CCC(CC)c1cc(NC2CCC(N)C2)n2nccc2n1 (stereo not given) + C#Cc1c(F)ccc2cc(O)cc(-c3ncc4c(N5CC6CCC(C5)N6)nc(OCC56CCCN5CC(F)C6)nc4c3F)c12
Return: 82.6%
